Sourced from the supplement of paper PMC5998384

# System: HeLa Kyoto
# Test: thermal stability score vs G1/S (z-score of summed log2 fold changes over temperatures); higher = more thermally stable than in G1/S
# Test conditions: cell cycle stage: mitosis
Readout name: thermal stability score
Give bare numbers.

// worked examples, thermal stability score included
- Sequence string: "MAEVSIDQSKLPGVKEVCRDFAVLEDHTLAHSLQEQEIEHHLASNVQRNRLVQHDLQVAKQLQEEDLKAQAQLQKRYKDLEQQDCEIAQEIQEKLAIEAERRRIQEKKDEDIARLLQEKELQEEKKRKKHFPEFPATRAYADSYYYEDGGMKPRVMKEAVSTPSRMAHRDQEWYDAEIARKLQEEELLATQVDMRAAQVAQDEEIARLLMAEEKKAYKKAKEREKSSLDKRKQDPEWKPKTAKAANSKSKESDEPHHSKNERPARPPPPIMTDGEDADYTHFTNQQSSTRHFSKSESSHKGFHYKH [CCDC50]"
  Test target: "HeLa Kyoto"
  Readout name: "thermal stability score"
  Quantitative readout: -1.65
- Sequence string: "MDDTLFQLKFTAKQLEKLAKKAEKDSKAEQAKVKKALLQKNVECARVYAENAIRKKNEGVNWLRMASRVDAVASKVQTAVTMKGVTKNMAQVTKALDKALSTMDLQKVSSVMDRFEQQVQNLDVHTSVMEDSMSSATTLTTPQEQVDSLIMQIAEENGLEVLDQLSQLPEGASAVGESSVRSQEDQLSRRLAALRN [CHMP1A]"
  Test target: "HeLa Kyoto"
  Readout name: "thermal stability score"
  Quantitative readout: -1.61

thermal stability score lookup needed for MAAARATTPADGEEPAPEAEALAAARERSSRFLSGLELVKQGAEARVFRGRFQGRAAVIKHRFPKGYRHPALEARLGRRRTVQEARALLRCRRAGISAPVVFFVDYASNCLYMEEIEGSVTVRDYIQSTMETEKTPQGLSNLAKTIGQVLARMHDEDLIHGDLTTSNMLLKPPLEQLNIVLIDFGLSFISALPEDKGVDLYVLEKAFLSTHPNTETVFEAFLKSYSTSSKKARPVLKKLDEVRLRGRKRSMVG [TP53RK] , thanks. -0.818

---

# System: HeLa Kyoto
# Test: thermal stability score vs G1/S (z-score of summed log2 fold changes over temperatures); higher = more thermally stable than in G1/S
# Test conditions: cell cycle stage: mitosis
Readout name: thermal stability score
Give bare numbers.

- Sequence string: "MAEGERQPPPDSSEEAPPATQNFIIPKKEIHTVPDMGKWKRSQAYADYIGFILTLNEGVKGKKLTFEYRVSEMWNEVHEEKEQAAKQSVSCDECIPLPRAGHCAPSEAIEKLVALLNTLDRWIDETPPVDQPSRFGNKAYRTWYAKLDEEAENLVATVVPTHLAAAVPEVAVYLKESVGNSTRIDYGTGHEAAFAAFLCCLCKIGVLRVDDQIAIVFKVFNRYLEVMRKLQKTYRMEPAGSQGVWGLDDFQFLPFIWGSSQLIDHPYLEPRHFVDEKAVNENHKDYMFLECILFITEMKTGPFAEHSNQLWNISAVPSWSKVNQGLIRMYKAECLEKFPVIQHFKFGSLLPIHPVTSG [PPP2R4]"
  Test target: "HeLa Kyoto"
  thermal stability score: 2.26

Please go through the list and note thermal stability score for each sequence.
1. MLSLDFLDDVRRMNKRQLYYQVLNFGMIVSSALMIWKGLMVITGSESPIVVVLSGSMEPAFHRGDLLFLTNRVEDPIRVGEIVVFRIEGREIPIVHRVLKIHEKQNGHIKFLTKGDNNAVDDRGLYKQGQHWLEKKDVVGRARGFVPYIGIVTILMNDYPKFKYAVLFLLGLFVLVHRE [SEC11A]
2. MAFRQALQLAACGLAGGSAAVLFSAVAVGKPRAGGDAEPRPAEPPAWAGGARPGPGVWDPNWDRREPLSLINVRKRNVESGEEELASKLDHYKAKATRHIFLIRHSQYHVDGSLEKDRTLTPLGREQAELTGLRLASLGLKFNKIVHSSMTRAIETTDIISRHLPGVCKVSTDLLREGAPIEPDPPVSHWKPEAVQYYEDGARIEAAFRNYIHRADARQEEDSYEIFICHANVIRYIVCRALQFPPEGWLRLSLNNGSITHLVIRPNGRVALRTLGDTGFMPPDKITRS [PGAM5]
3. MVEDELALFDKSINEFWNKFKSTDTSCQMAGLRDTYKDSIKAFAEKLSVKLKEEERMVEMFLEYQNQISRQNKLIQEKKDNLLKLIAEVKGKKQELEVLTANIQDLKEEYSRKKETISTANKANAERLKRLQKSADLYKDRLGLEIRKIYGEKLQFIFTNIDPKNPESPFMFSLHLNEARDYEVSDSAPHLEGLAEFQENVRKTNNFSAFLANVRKAFTATVYN [SPC25]

1. 7.47
2. -3.72
3. -0.275

Please go through the list and note thermal stability score for each sequence.
1. MKKVRLKELESRLQQVDGFEKPKLLLEQYPTRPHIAACMLYTIHNTYDDIENKVVADLGCGCGVLSIGTAMLGAGLCVGFDIDEDALEIFNRNAEEFELTNIDMVQCDVCLLSNRMSKSFDTVIMNPPFGTKNNKGTDMAFLKTALEMARTAVYSLHKSSTREHVQKKAAEWKIKIDIIAELRYDLPASYKFHKKKSVDIEVDLIRFSF [METTL5]
2. MPRKRKCDLRAVRVGLLLGGGGVYGSRFRFTFPGCRALSPWRVRVQRRRCEMSTMFADTLLIVFISVCTALLAEGITWVLVYRTDKYKRLKAEVEKQSKKLEKKKETITESAGRQQKKKIERQEEKLKNNNRDLSMVRMKSMFAIGFCFTALMGMFNSIFDGRVVAKLPFTPLSYIQGLSHRNLLGDDTTDCSFIFLYILCTMSIRQNIQKILGLAPSRAATKQAGGFLGPPPPSGKFS [TMCO1]

1. -0.982
2. -0.0344

---

# Test system: HeLa Kyoto
# Test: thermal stability score vs G1/S (z-score of summed log2 fold changes over temperatures); higher = more thermally stable than in G1/S
# Test conditions: cell cycle stage: early G1 (4.5 h after nocodazole release)
Readout name: thermal stability score
Answers are plain numbers.

- Sequence string: "MPLENLEEEGLPKNPDLRIAQLRFLLSLPEHRGDAAVRDELMAAVRDNNMAPYYEALCKSLDWQIDVDLLNKMKKANEDELKRLDEELEDAEKNLGESEIRDAMMAKAEYLCRIGDKEGALTAFRKTYDKTVALGHRLDIVFYLLRIGLFYMDNDLITRNTEKAKSLIEEGGDWDRRNRLKVYQGLYCVAIRDFKQAAELFLDTVSTFTSYELMDYKTFVTYTVYVSMIALERPDLREKVIKGAEILEVLHSLPAVRQYLFSLYECRYSVFFQSLAVVEQEMKKDWLFAPHYRYYVREMRIHAYSQLLESYRSLTLGYMAEAFGVGVEFIDQELSRFIAAGRLHCKIDKVNEIVETNRPDSKNWQYQETIKKGDLLLNRVQKLSRVINM [PSMD6]"
  Readout name: "thermal stability score"
  Quantitative readout: 1

For the next question, use this sequence.
thermal stability score lookup needed for MAGVACLGKAADADEWCDSGLGSLGPDAAAPGGPGLGAELGPGLSWAPLVFGYVTEDGDTALHLAVIHQHEPFLDFLLGFSAGTEYMDLQNDLGQTALHLAAILGETSTVEKLYAAGAGLCVAERRGHTALHLACRVGAHACARALLQPRPRRPREAPDTYLAQGPDRTPDTNHTPVALYPDSDLEKEEEESEEDWKLQLEAENYEGHTPLHVAVIHKDVEMVRLLRDAGADLDKPEPTCGRSPLHLAVEAQAADVLELLLRAGANPAARMYGGRTPLGSAMLRPNPILARLLRAHGAPEPEGEDEKSGPCSSSSDSDSGDEGDEYDDIVVHSSRSQTRLPPTPASKPLPDDPRPV [NFKBIB] , thanks. 0.217

---

Field: thermal stability score. Provide a value for each of the sequences that follow.
# Tested on: HeLa Kyoto;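 further: synchronized HeLa Kyoto cells, proteins quantified by TMT10plex mass spectrometry, three biological replicates, mitosis taken 0.5 h after nocodazole release, G1/S directly after double thymidine block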
# Test: thermal stability score vs G1/S (z-score of summed log2 fold changes over temperatures); higher = more thermally stable than in G1/S
# Test conditions: cell cycle stage: early G1 (4.5 h after nocodazole release)
Numbers only.

- Sequence string: "MAEPFLSEYQHQPQTSNCTGAAAVQEELNPERPPGAEERVPEEDSRWQSRAFPQLGGRPGPEGEGSLESQPPPLQTQACPESSCLREGEKGQNGDDSSAGGDFPPPAEVEPTPEAELLAQPCHDSEASKLGAPAAGGEEEWGQQQRQLGKKKHRRRPSKKKRHWKPYYKLTWEEKKKFDEKQSLRASRIRAEMFAKGQPVAPYNTTQFLMDDHDQEEPDLKTGLYSKRAAAKSDDTSDDDFMEEGGEEDGGSDGMGGDGSEFLQRDFSETYERYHTESLQNMSKQELIKEYLELEKCLSRMEDENNRLRLESKRLGGDDARVRELELELDRLRAENLQLLTENELHRQQERAPLSKFGD [HEXIM1]"
  Test target: "HeLa Kyoto"
  thermal stability score: -4.2
- Sequence string: "MGKGCKVVVCGLLSVGKTAILEQLLYGNHTIGMEDCETMEDVYMASVETDRGVKEQLHLYDTRGLQEGVELPKHYFSFADGFVLVYSVNNLESFQRVELLKKEIDKFKDKKEVAIVVLGNKIDLSEQRQVDAEVAQQWAKSEKVRLWEVTVTDRKTLIEPFTLLASKLSQPQSKSSFPLPGRKNKGNSNSEN [NKIRAS1]"
  Test target: "HeLa Kyoto"
  thermal stability score: "2.91e-19"
- Sequence string: "MDGLLNPRESSKFIAENSRDVFIDSGGVRRVAELLLAKAAGPELRVEGWKALHELNPRAADEAAVNWVFVTDTLNFSFWSEQDEHKCVVRYRGKTYSGYWSLCAAVNRALDEGIPITSASYYATVTLDQVRNILRSDTDVSMPLVEERHRILNETGKILLEKFGGSFLNCVRESENSAQKLMHLVVESFPSYRDVTLFEGKRVSFYKRAQILVADTWSVLEGKGDGCFKDISSITMFADYRLPQVLAHLGALKYSDDLLKKLLKGEMLSYGDRQEVEIRGCSLWCVELIRDCLLELIEQKGEKPNGEINSILLDYYLWDYAHDHREDMKGIPFHRIRCIYY [C9ORF64]"
  Test target: "HeLa Kyoto"
  thermal stability score: -1.65

Please go through the list and note thermal stability score for each sequence.
1. MSLEQRSLHCKPEEALEAQQEALGLVCVQAATSSSSPLVLGTLEEVPTAGSTDPPQSPQGASAFPTTINFTRQRQPSEGSSSREEEGPSTSCILESLFRAVITKKVADLVGFLLLKYRAREPVTKAEMLESVIKNYKHCFPEIFGKASESLQLVFGIDVKEADPTGHSYVLVTCLGLSYDGLLGDNQIMPKTGFLIIVLVMIAMEGGHAPEEEIWEELSVMEVYDGREHSAYGEPRKLLTQDLVQEKYLEYRQVPDSDPARYEFLWGPRALAETSYVKVLEYVIKVSARVRFFFPSLREAALREEEEGV [MAGEA1]
2. MAARRALHFVFKVGNRFQTARFYRDVLGMKVESCSVARLECSGAISAHCSDYTRITEDSFSKPYDGKWSKTMVGFGPEDDHFVAELTYNYGVGDYKLGNDFMGITLASSQAVSNARKLEWPLTEVAEGVFETEAPGGYKFYLQNRSLPQSDPVLKVTLAVSDLQKSLNYWCNLLGMKIYEKDEEKQRALLGYADNQCKLELQGVKGGVDHAAAFGRIAFSCPQKELPDLEDLMKRENQKILTPLVSLDTPGKATVQVVILADPDGHEICFVGDEAFRELSKMDPEGSKLLDDAMAADKSDEWFAKHNKPKASG [GLOD4]

[0.313, 0.704]
